The reported measurements were obtained from ChEMBL document CHEMBL1138807.

target: Kynurenine 3-monooxygenase (Rattus norvegicus) (UniProt O88867); assay: Percent kynurenine 3-hydroxylase activity determined by the conversion of L-kynurenine to 3-hydroxykynurenine in rat striatum at 1 mM concentration of compound (value is mean +/- SEM); format: tissue-based
Sequence (O88867 whole entry, looked up): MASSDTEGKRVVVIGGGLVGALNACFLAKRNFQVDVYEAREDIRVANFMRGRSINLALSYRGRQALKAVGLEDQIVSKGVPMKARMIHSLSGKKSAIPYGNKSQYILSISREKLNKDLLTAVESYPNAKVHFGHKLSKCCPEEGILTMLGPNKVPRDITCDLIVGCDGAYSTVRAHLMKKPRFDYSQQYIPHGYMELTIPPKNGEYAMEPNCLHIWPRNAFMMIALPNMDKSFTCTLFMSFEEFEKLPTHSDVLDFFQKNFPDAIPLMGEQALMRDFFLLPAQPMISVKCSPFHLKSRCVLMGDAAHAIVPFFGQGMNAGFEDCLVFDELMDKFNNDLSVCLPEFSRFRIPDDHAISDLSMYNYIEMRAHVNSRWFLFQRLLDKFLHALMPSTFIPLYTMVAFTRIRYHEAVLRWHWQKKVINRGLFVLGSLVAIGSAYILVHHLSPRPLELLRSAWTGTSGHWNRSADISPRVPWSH
readout_type: Activity (%)

>>> measured_number("Nc1ccc(Cl)cc1C1=NN(C(=O)C2CC2)CC1")
98.1
>>> measured_number("CCCC(=O)N1CCC(c2ccccc2N)=N1")
85
>>> measured_number("COc1ccc(N)c(C2=NN(C(=O)C3CCCCC3)CC2)c1")
87.4
>>> measured_number("CCC(=O)N1CCC(c2cc(Cl)ccc2N)=N1")
97.7
>>> measured_number("COc1ccc(N)c(C2=NN(C(=O)C3CCCC3)CC2)c1")
105
>>> measured_number("Nc1ccc(Cl)cc1C1=NN(C(=O)c2ccccc2)CC1")
106
>>> measured_number("CCC(=O)N1CCC(c2cc(OC)ccc2N)=N1")
81.1
>>> measured_number("COc1ccc(N)c(C(=O)CC(NC(C)=O)C(=O)O)c1 (stereo not given)")
101
>>> measured_number("COc1ccc(N)c(C2=NN(C(=O)C3CC3)CC2)c1")
123
>>> measured_number("Nc1ccccc1C1=NN(C(=O)c2ccccc2)CC1")
82.5
>>> measured_number("CCCC(=O)N1CCC(c2cc(Cl)ccc2N)=N1")
97.7
>>> measured_number("CCCC(=O)N1CCC(c2cc(OC)ccc2N)=N1")
96.4
>>> measured_number("COc1ccc(N)c(C2=NN(C(C)=O)CC2)c1")
98.8
>>> measured_number("CCC(=O)N1CCC(c2ccccc2N)=N1")
85.2
>>> measured_number("CC(=O)N1CCC(c2ccccc2N)=N1")
77.8
>>> measured_number("CCCC(=O)NC(CC(=O)c1cc(OC)ccc1N)C(=O)O (stereo not given)")
88.7
>>> measured_number("Nc1ccccc1C1=NN(C(=O)C2CC2)CC1")
86.9
>>> measured_number("CCCCC(=O)N1CCC(c2cc(OC)ccc2N)=N1")
120
>>> measured_number("COc1ccc(N)c(C2=NN(C(=O)C3CCC3)CC2)c1")
96.5
>>> measured_number("CC(=O)N1CCC(c2cc(Cl)ccc2N)=N1")
111

* * *

molecular target: Nitric oxide synthase 1 (Rattus norvegicus); experiment: Percent inhibition towards rat striatal neuronal nitric oxide synthase (nNOs) at 1 mM concentration (value is mean +/- SEM)
readout_type: inhibition (%)

[a] CCCC(=O)N1CCC(c2cc(OC)ccc2N)=N1
[b] COc1ccc(N)c(C2=NN(C(=O)C3CCCC3)CC2)c1
[ask] Could you check which of a and b has a smaller value for inhibition? Answer by quoting the chosen item's label.
[reply] a

[1] Nc1ccc(Cl)cc1C1=NN(C(=O)C2CC2)CC1
[2] COc1ccc(N)c(C2=NN(C(=O)C3CCC3)CC2)c1
[ask] Hi, I'm comparing two records. Which one has the lower inhibition, 1 or 2 ? When you have decided, please share the label of that item.
[reply] 2

[A] CCCC(=O)N1CCC(c2ccccc2N)=N1
[B] CC(=O)N1CCC(c2ccccc2N)=N1
[ask] For the pair A and B , which member has the lower inhibition number? Respond using the label that marks the chosen record.
[reply] B
(B: 33.7%, A: 52.4%)

* * *

biological target: Nitric oxide synthase 1 (Rattus norvegicus); experiment: Percent inhibition towards rat striatal neuronal nitric oxide synthase (nNOs) at 1 mM concentration (value is mean +/- SEM)
readout_type: inhibition (%)

>>> measured_number("CCCC(=O)N1CCC(c2cc(Cl)ccc2N)=N1")
34.4

[1] CCC(=O)N1CCC(c2cc(OC)ccc2N)=N1
[2] CCC(=O)N1CCC(c2ccccc2N)=N1
[ask] # argmax over inhibition for candidates 1 and 2 State the label of the item chosen.
[reply] 1
